Quick reference: kon of the listed items.
test.system: T1, recombinant human IGSF8 extracellular domain tagged by a human Fc region (IGSF8-hFc) (human, UniProt Q969P0 28-579, biotin label in Examples 17, 18 and 28 (site not given))
T1 construct: also called IGSF8-Fc fusion protein; IGSF8-hFc-biotin; not shown: human Fc region
T1 sequence: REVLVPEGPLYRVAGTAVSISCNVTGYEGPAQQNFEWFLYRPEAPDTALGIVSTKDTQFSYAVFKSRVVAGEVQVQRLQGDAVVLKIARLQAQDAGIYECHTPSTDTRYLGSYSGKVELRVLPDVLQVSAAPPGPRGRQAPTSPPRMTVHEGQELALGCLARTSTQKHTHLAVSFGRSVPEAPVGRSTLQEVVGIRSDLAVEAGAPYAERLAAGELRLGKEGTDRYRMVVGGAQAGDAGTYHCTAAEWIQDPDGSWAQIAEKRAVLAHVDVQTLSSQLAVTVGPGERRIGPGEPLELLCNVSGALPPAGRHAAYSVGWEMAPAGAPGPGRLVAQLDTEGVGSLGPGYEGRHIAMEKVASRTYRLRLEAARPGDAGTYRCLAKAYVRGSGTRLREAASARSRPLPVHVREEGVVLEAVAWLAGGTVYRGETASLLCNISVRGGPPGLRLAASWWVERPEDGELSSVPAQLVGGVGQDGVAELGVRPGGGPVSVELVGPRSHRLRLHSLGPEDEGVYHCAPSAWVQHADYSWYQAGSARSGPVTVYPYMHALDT
protocol.description: SPR, Ab captured
Respond with the bare value in M⁻¹ s⁻¹.

Solved cases (4 shown):
{"columns": ["binder", "quantity.measured", "readout.units", "assay.value"],
 "data": [
  ["L1-08 (antibody, V domains shown) VH: QVQLVESGGGVVQPGRSLRLSCAASGFTFSTYGMHWVRQAPGKGLEWVAVIWDDGSYKYYGDSVKGRFTISRDNSKNTLYLQMNSLRAEDTAVYYCARDGSGWGYAFDIWGQGTMVTVSS VL: DIQLTQSPSSLSASVGDRVTITCQASQDIGAYLNWYQHKPGKAPNPLVFDAANLETGVPPRFSATGSGTDFSLTITSLQPEDFATYYCQQYDSFPYTFGQGTRLDIK", "kon", "M⁻¹ s⁻¹", 437000],
  ["L2-03 (antibody, V domains shown) VH: EVQLVESGGGLEQPGGSLRLSCAGSGFTFRDYAMTWVRQAPGKGLEWVSSISGSGGSTYYADSVKGRFTISRDNSKNTLYLQMNSLRAEDTAIYYCARGEYSSGWPSWFDPWGQGTLVTVSS VL: EIVLTQSPSSLSASVGDRVTISCRASRTVGTFLNWYQQRPGKPPQALILGVSILEGGVSSRFSGAGSGTEFSLTISSLQPEDIGTYYCQQSHDVPRTFGQGTKVDLR", "kon", "M⁻¹ s⁻¹", 142000],
  ["L1-15 (antibody, V domains shown) VH: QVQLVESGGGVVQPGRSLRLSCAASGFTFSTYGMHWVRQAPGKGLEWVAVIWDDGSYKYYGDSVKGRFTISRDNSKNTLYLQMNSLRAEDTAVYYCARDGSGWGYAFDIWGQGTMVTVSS VL: DIQLTQSPSSLSASVGDRVTITCQASQDIMKTLNWYQHKPGKAPNPLVFDAANLETGVPPRFSATGSGTDFSLTITSLQPEDFATYYCQQYDSFPYTFGQGTRLDIK", "kon", "M⁻¹ s⁻¹", 362000],
  ["L1-31 (antibody, V domains shown) VH: QVQLVESGGGVVQPGRSLRLSCAASGFTFSTYGMHWVRQAPGKGLEWVAVIWDGGKYKYYGDSVKGRFTISRDNSKNTLYLQMNSLRAEDTAVYYCARDGSGWGYAFDIWGQGTLVTVSS VL: DIQLTQSPSSLSASVGDRVTITCQASQDIGPWLNWYQHKPGKAPKPLVFRSPNLETGVPSRFSASGSGTDFTLTISSLQPEDFATYYCQQYDSFPYTFGQGTKVEIK", "kon", "M⁻¹ s⁻¹", 210000]
]}

Next up:
Prompt line: Using known records, supply kon for L2-08 (antibody, V domains shown) VH: EVQLVESGGGLEQPGGSLRLSCAASGFTFRDYAMTWVRQAPGKGLEWVSSISGSGGSTYYADSVKGRFTISRDNSKNTLYLQMNSLRAEDTAIYYCARGEYSSGWPSWFDPWGQGTLVTVSS VL: DIQMTQSPSSLSASVGDRVTITCRASRTVGTFLNWYQQKPGKAPKALILGVSILEGGVPSRFSGSGSGTDFTLTISSLQPEDIATYYCQQSHDVPRTFGQGTKVEIK
Response line: 129000
